- Measurement Description: folding stability dG unfold from chymotrypsin proteolysis; higher = more stable
Reported Endpoint: folding stability dG unfold
Please append the unit to your numeric answer.

So what's the measured folding stability dG unfold for this one? SAGGSAGGAVDPALVSEETTSTSYYPDGTVVTTTTLKVPGKGTTVTLTTVTPLPPSSPSPSASLSAGGSAGG [r6_758_JUSTAS]
0.437 kcal/mol

Try SAGGSAMTPEEIRNMSLEEILKLIKEKLEKGEKVEIEITLPDGRKLRITFERLPNGEIKITIEEVDSAGGSA [r15_857_TrROS_Hall] next.
5.04 kcal/mol

Try SAGTLVLVIEVPLEDVTPEQAEEIAEEAARFLREAGLPEGIEVEDVRVERLPDGRLLVLLPMRILEDESAGG [r19_87_TrMRF] next.
2.59 kcal/mol

Try SAGGSAGGNMIPVKARMKWPDGKEFPFEIMVQYQPDGQMQIEIQNPGDGETVTFPNMKLIDVEISAGGSAGG [r6_255_TrROS] next.
0.828 kcal/mol

Try SAGGSAGGSKKKVTINIVLTVKPGETLTLTVEITIDGKKYKVTKTLTYDPKTNKLVLTATVEPSAGGSAGGS [r12_136_TrROS_Hall] next.
5.03 kcal/mol

Try SAGGSAMKVEKEGDKVTIIVNAPESLNDKKVLTEKIKKAIEENKNKEVEIIAPPKYKPYAEETIKNSAGGSA [r15_89_JUSTAS] next.
-0.217 kcal/mol

Try SAGGSAGGSAGSPKGKPPKPTIEYEPITFEIPNPDGQGFELEISIIRMPGNGQEFIGISFSAGGSAGGSAGG [r11_1024_TrROS] next.
1.86 kcal/mol

Try SAGGSPKAREERFEKTLPDGTVVPVTLTRLPDGTVRVETTTYTYNSPEPVASTSTTTLPEAEVAAALSAGGS [r16_470_JUSTAS] next.
0.684 kcal/mol

Try SAGGSAGGSAGGPLPVTVTVLERTHYPEEGLYTVKTEGGTVITLPPELIDKHPPGSTVLLSAGGSAGGSAGG [r11_124_JUSTAS] next.
-0.736 kcal/mol

Try SAGGSAGGSAAPLEARLVSVSRDPAGNRLHAVYVVRDPSTGEQYLVTFSADPTSISVRVERVSAGGSAGGSA [r18_444_TrMRF] next.
4.48 kcal/mol

Try SAGGSAGGSAGSPIDTLVEEKTFTLPNGEKVIEATLKRPPGEPVHVVTIETKDSVIVELESAGGSAGGSAGG [r17_316_JUSTAS] next.
0.304 kcal/mol

Try SAGGMVIEKDGDYEYVLLLVDSPEGFPVEVAKELLKKEFGLKEIKVLSAKPLPNGIRLVLVKNKFEKSAGGS [r16_234_TrMRF] next.
1.57 kcal/mol

Try SAGGSALKIPSGKKYTVVVKDPNKPVEYVADVIERHPDSILIEVKDPNSSKTKKITVPTNVITIDLSAGGSA [r15_381_JUSTAS] next.
0.684 kcal/mol

Try SAGGSAGGSAGSKKKRVITIWIPPNQSIEEAKNFMDEGFPIKEIDVQTRPDGHMMVTITLSAGGSAGGSAGG [r11_97_TrROS] next.
1.05 kcal/mol

* * *

- Measurement Description: folding stability dG unfold (combined trypsin and chymotrypsin); higher = more stable
Assign folding stability dG unfold to each entry below.
# number only, unit kcal/mol dropped from output

So what's the measured folding stability dG unfold for this one? SAGGKIPPGMKLEIEDINIEFYNNGWIKITVKMTIWAPDGKTMTMTMTIVIPIRPPPPPPNDPENNESAGGS [r8_90_TrROS]
4.29

Try SAGGSAGGSALPPGEPVEFPWRIKMGGEEHDVKRTVYRDPDGNVKLNIEIPMPPGNFEIEPVSAGGSAGGSA [r18_428_TrROS] next.
-0.451

Try SAGGKIKIKSVEVQPNPDGMRKVTLEFQDGGKEHKVEIYVHPGGIMISIPNGKTRTIPWDDLDDIKLSAGGS [r16_593_TrROS] next.
1.01

Try SGMPTVTLNVTIEFERERLSFDPKTGKPRLELVKVTKPVTITGFFTSPEEAAAAAEAVRKALEADPEALASA [r9_77_JUSTAS] next.
2.07

* * *

Assign folding stability dG unfold to each entry below.
- Measurement Description: folding stability dG unfold (combined trypsin and chymotrypsin); higher = more stable
# number only, unit kcal/mol dropped from output

So what's the measured folding stability dG unfold for this one? SAGGSAGGSAGMVINVTVTLKNSTGTITITLPVPPDLLDEVLKELKEKPDYEVVSVDTSPSAGGSAGGSAGG [r11_692_JUSTAS]
2.67

Try SAGGSLVYRLVLRRGDKVLVVTAPFDSPSDALAAASRLLPGGAELLLEFFDPRTGEPLGTVPFRSVSAGGSA [r2_390_TrMRF] next.
2.22

Try SMVTVDEKEDPNSDNKIYTVSLPENGEDVITITKAPDGTTTVTLHYPDGSTTTKTFPGNTPVTEAIKLLLSA [r9_346_JUSTAS] next.
1.74

Try SKPIPVKITIETKTNPNGEPITTITIDKGDKTYSLPLGNAKILEIDPEKQYIIIYNPETGSILILKPSDLSA [r9_1186_TrMRF] next.
2.95

Try SAGGSAMGMRPVRREFTGSGMRITVEVVESTSIPTAEIRVLDPEGRLLRERRLPAEEVEREIARLLSAGGSA [r15_940_JUSTAS] next.
1.55

Try SAGGSAGGSAKKVIKAKILEVKVLPDGTGLVKLEGEDGLEVVIPLSILENISPDAIVTIEASAGGSAGGSAG [r3_315_TrMRF] next.
1.45

Try SAGMKPEEVRVIEIPPGMTVEEIIEAIEKEGPLRIRVEGKELEFESKEDIEAAIRNAPEPVRIEVRRLSAGG [r19_95_TrROS_Hall] next.
1

Try SAGGSAGGSKKPVLAKIAILNSGSPEVAEELAKRLAAELGLSPDEVKVELHVIPVTAPGELLFSAGGSAGGS [r12_1066_TrMRF] next.
0.416

Try SAGGSAGGSAGLTKPVEVEVEEDGTVTIKTLSIVPVDDGYELHEETTEIPLSPEEIAALQSAGGSAGGSAGG [r17_415_JUSTAS] next.
0.327

Try SAGGSAGGKEKLIVKIKIEKKVKLENGEEKKVKKTIVVEMTPEEVKELLKKLKKENVTEVEIFPSAGGSAGG [r6_984_TrROS_Hall] next.
2.55

Try SAGGLPPGWKPIDIMVLVPPGEPLTEDQVEELAKEIARELQEKGVTIDVRVWPTDDWYFVSVDIQVPDSAGG [r13_442_TrROS] next.
1.73

Try SAGGSAMPDMTAEELAAEVAKKLPPGEKVLIKIRNKNGETKTFELGEDISDLPADEVTEIEIEVLPSAGGSA [r15_50_TrROS_Hall] next.
0.781

Try SAGGSAGGSAGEVTVPAVVPPDAVPEVVEAVERLGARAEVEWDPETGLYRVNITFDGEVGSAGGSAGGSAGG [r11_1043_TrMRF] next.
0.604

* * *

- Measurement Description: folding stability dG unfold (combined trypsin and chymotrypsin); higher = more stable
Decide using folding stability dG unfold: a value greater than or equal to 2 kcal/mol is 1, a smaller one is -1.

Assess whether reported folding stability dG unfold for SAEELARRLRELGLEVEIVRIERERRPDGTIRIEVRLDGELVAELEVRLPPPPPPVEVVRDADGRERRVRSA [r9_442_TrROS_Hall] sits at 2 kcal/mol or higher.
-1

Try SAGGVIGTRKKVNKIEKPVPEGATTTPSIIGNTTILTTTAPDGSTVTVTLTKTEPIPGKPDVSEKYEASAGG [r13_804_JUSTAS] next.
-1

Try SAGMPPVRVVQAPSTVYTDPSPPTLTVESVFTGEGRLSTTSSTVPAPPELADLPAGAAVSRSFTVTVLPSAG [r5_714_JUSTAS] next.
-1

Try SAGGSAGGSMITLTLPDEEALRAYVEQLVADAGTEITEVTVTPLAPDTVEAEVSIDPTDPVGLSAGGSAGGS [r12_647_JUSTAS] next.
-1

Try SAGGSAGGSAGMVKLRFEVKFKIKLLGEGETNEVVEVDVKVEFEVTLPPFKVRPDGSLLESAGGSAGGSAGG [r11_558_TrMRF] next.
1

Try SAGGSAGGSGMPVVLLEATFDPNNPGTTYRLTTVDPNTGGVAESEIPASEAEARGLGPLDVLESAGGSAGGS [r12_123_JUSTAS] next.
-1

Try SAGGSAGGSAGGSAPPNLIIFIHVEIKIKEPKFDPGNGKPEYEIEITDIPIQIMPPDDLSAGGSAGGSAGGS [r4_417_TrROS] next.
1

Source of measurements: the supplement of paper PMC12764529
